Biological target: human SMS1 (Homo sapiens)
Sequence (Q86VZ5 whole entry): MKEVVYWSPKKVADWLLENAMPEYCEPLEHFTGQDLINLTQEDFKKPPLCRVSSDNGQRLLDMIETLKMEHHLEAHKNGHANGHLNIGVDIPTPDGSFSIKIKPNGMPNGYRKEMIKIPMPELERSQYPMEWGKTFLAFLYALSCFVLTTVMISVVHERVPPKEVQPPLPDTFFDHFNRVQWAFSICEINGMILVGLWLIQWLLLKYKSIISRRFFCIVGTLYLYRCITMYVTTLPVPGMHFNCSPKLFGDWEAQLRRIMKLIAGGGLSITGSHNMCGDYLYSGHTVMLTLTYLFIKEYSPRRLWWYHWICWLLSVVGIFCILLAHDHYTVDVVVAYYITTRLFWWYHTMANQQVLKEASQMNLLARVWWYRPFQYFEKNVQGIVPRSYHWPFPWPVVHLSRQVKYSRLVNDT
Assay: purified SMS enzyme inhibitory assay in vitro
Assay type: biochemical
Settings: read-out: SMS1 Inhibition @ 100 μmol/L (%)
measured.metric: inhibition at 100 µM (%)

Some solved entries appear below for comparison.
[
  {
    "compound": "Cc1cncc(NC(=O)c2sccc2OCc2ccccc2)c1",
    "inhibition at 100 µM, %": 28
  },
  {
    "compound": "O=C(Nc1cccnc1)c1scc(Br)c1OCc1ccccc1",
    "inhibition at 100 µM, %": 14
  }
]

(P) Cc1nc(OCc2ccccc2)c(C(=O)Nc2cccnc2)s1
(Q) O=C(Nc1ccnnc1)c1sccc1OCc1ccccc1
(R) O=C(Nc1cncc(F)c1)c1sccc1OCc1ccccc1
(S) COc1ccccc1COc1ccsc1C(=O)Nc1cccnc1 [14e]
Rank entries according to their inhibition at 100 µM, from the largest number down. Arrange the labels as the request states and list them.
R, S, P, Q
(R: 52%, S: 33%, P: 10%, Q: 5%)

----------
Test: in vivo
Settings: male, SD, rat, cornea, topical or ocular, 16 ug
measured.metric: Cmax (ng/g)
Your answer should be a plain number; it is taken to be in ng/g.

I would be grateful if you could share the reported Cmax for CCCCCCCCOc1ccccc1COc1ccsc1C(=O)Nc1cccnc1 [14l] .
3050

----------
Target: human SMS2 (Homo sapiens, UniProt Q8NHU3)
Sequence (Q8NHU3 whole entry): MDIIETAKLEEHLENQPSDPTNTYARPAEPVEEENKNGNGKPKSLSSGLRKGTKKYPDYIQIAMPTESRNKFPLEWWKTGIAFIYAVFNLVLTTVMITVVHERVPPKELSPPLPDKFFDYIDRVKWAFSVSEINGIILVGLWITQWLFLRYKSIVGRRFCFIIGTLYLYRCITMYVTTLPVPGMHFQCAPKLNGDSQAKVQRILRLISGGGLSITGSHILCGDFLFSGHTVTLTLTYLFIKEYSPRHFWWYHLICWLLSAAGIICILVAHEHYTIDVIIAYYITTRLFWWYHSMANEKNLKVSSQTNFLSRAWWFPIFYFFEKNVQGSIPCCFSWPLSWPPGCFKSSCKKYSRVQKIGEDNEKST
measured.metric: IC50 (nM)

(1) CCCCCCCCOc1c(Cl)cccc1COc1ccsc1C(=O)Nc1cccnc1 [14q]
(2) CCCCOc1ccccc1COc1ccsc1C(=O)Nc1cccnc1 [14h]
(3) CCCCCCCCCCOc1ccccc1COc1ccsc1C(=O)Nc1cccnc1 [14n]
(4) O=C(Nc1cccnc1)c1sccc1OCc1ccc(Cl)cc1 [14c]
Endpoint returns the given compounds ordered by ascending IC50. Arrange the labels as the request states and list them.
1, 3, 2, 4
(1: 15 nM, 3: 31 nM, 2: 65 nM, 4: 38800 nM)

(a) CCCCCCCCOc1ccc(Cl)cc1COc1ccsc1C(=O)Nc1cccnc1 [14r]
(b) CCCCCCCCCCCOc1ccccc1COc1ccsc1C(=O)Nc1cccnc1 [14o]
(c) COc1ccccc1COc1ccsc1C(=O)Nc1cccnc1 [14e]
(d) O=C(Nc1cccnc1)c1sccc1OCc1ccccc1 [5a]
Order the entries by their reported IC50, beginning at the minimum. Arrange the labels as the request states and list them.
b, c, a, d
(b: 29 nM, c: 70 nM, a: 111 nM, d: 400 nM)

(A) CCCOc1ccccc1COc1ccsc1C(=O)Nc1cccnc1 [14g]
(B) CCCCCCCOc1ccccc1COc1ccsc1C(=O)Nc1cccnc1 [14k]
Of the two listed items, A and B , which carries the larger IC50 figure? Write down the label of the entry you select.
A
(A: 103 nM, B: 29 nM)

(a) CCOc1ccccc1COc1ccsc1C(=O)Nc1cccnc1 [14f]
(b) CCCCCCCCCCCCOc1ccccc1COc1ccsc1C(=O)Nc1cccnc1 [14p]
I'm curious, which of these has a smaller IC50 number: a or b ? Write down the label of the entry you select.
b

----------
Biological target: human SMS2 (Homo sapiens, UniProt Q8NHU3)
Test: purified SMS enzyme inhibitory assay in vitro
Assay type: biochemical
Conditions: pIC50, SMS2 – ClogP
measured.metric: LLE

(P) CCCCCOc1ccccc1COc1ccsc1C(=O)Nc1cccnc1 [14i]
(Q) CCCCCCCCCCCCOc1ccccc1COc1ccsc1C(=O)Nc1cccnc1 [14p]
I'm curious, which of these has a smaller LLE number: P or Q ? Write down the label of the entry you select.
Q

(I) O=C(Nc1cccnc1)c1sccc1OCc1ccccc1Cl [14a]
(II) CCCCCCCCCOc1ccccc1COc1ccsc1C(=O)Nc1cccnc1 [14m]
I'm curious, which of these has a smaller LLE number: I or II ? Write down the label of the entry you select.
II

(I) CCCCCCOc1ccccc1COc1ccsc1C(=O)Nc1cccnc1 [14j]
(II) CCOc1ccccc1COc1ccsc1C(=O)Nc1cccnc1 [14f]
Of the two listed items, I and II , which carries the larger LLE figure? Write down the label of the entry you select.
II
